Recorded values, source PubChem BioAssay AID2060889.

Test system: LG0567-F671-PDC complex spheroids viability;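 also: luminescence signal used as a proxy for viable cells; spheroids exposed to compound for seven days before readout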
assayText: Anticancer human tumor LG0567-F671-PDC patient-derived lung adenocarcinoma cell line growth inhibition [RAS]
cond: curve of first compound; second compound 0.0949 µM
reportedEndpoint: IC50

C=CC(=O)Nc1cc(Nc2nccc(-c3cn(C)c4ccccc34)n2)c(OC)cc1N(C)CCN(C)C + CCn1c(-c2cccnc2C(C)OC)c2c3cc(ccc31)N1CCOC(CC(NC(=O)C(C(C)C)N(C)C(=O)C3(F)CCN(C(=O)C#CC(C)(C)N(C)C)CC3)C(=O)N3CCCC(N3)C(=O)OCC(C)(C)C2)C1 = < 0.00316 µM

Next item in the queue.
Given the entry CC(=O)OC12COC1CC(O)C1(C)C(=O)C(O)C3=C(C)C(OC(=O)C(O)C(NC(=O)OC(C)(C)C)c4ccccc4)CC(O)(C(OC(=O)c4ccccc4)C21)C3(C)C (configuration not stated) + CCn1c(-c2cc(N3CCN(C)CC3)cnc2C(C)OC)c2c3cc(ccc31)-c1csc(n1)CC(NC(=O)C1CC1C)C(=O)N1CCCC(N1)C(=O)OCC(C)(C)C2 , report its measured IC50.
< 0.0316 µM
